Data credit: ChEMBL document CHEMBL4387752

Test: Half life in Balb/c mouse at 30 mg/kg, po
Type: ADME, organism-based
Conditions: in vivo
assay_metric: half-life (h)
Numbers only here, please. The scale is h.

Which half-life value is on record for COCCS(=O)(=O)C(C(=O)NCC(=O)NC1CC1)c1nc2ccc(-c3ccc(F)nc3)cc2s1 (stereo unspecified) ?
2.3

---

Ratio IC50 values by entry
Species: Homo sapiens
Assay: Selectivity index, ratio of IC50 for inhibition of human hepatic lipase expressed in African green monkey COS7 cells to IC50 for inhibition of human endothelial lipase derived from human HT1080 cell conditioned media
Type: cell-based

Before answering, review these 2 worked examples.
CS(=O)(=O)C(C(=O)NCC(=O)NC1CC1)c1nc2ccc(-c3ccc(F)nc3)cc2s1 (centres undefined) = 2.8
O=C(CNC(=O)C(c1nc2ccc(-c3ccc(F)nc3)cc2s1)S(=O)(=O)Cc1ccccc1)NC1CC1 (centres undefined) = 0.3

Which Ratio IC50 value is on record for COCCS(=O)(=O)C(C(=O)NCC(=O)NC1CC1)c1nc2ccc(-c3ccc(F)nc3)cc2s1 (centres undefined) ?
84

Next molecule up: O=C(CNC(=O)C(c1nc2ccc(-c3ccc(F)nc3)cc2s1)S(=O)(=O)CCC(F)(F)F)NC1CC1 (centres undefined)
2.7

---

Molecular target: UniProt Q9WVG5
Sequence (Q9WVG5 whole entry): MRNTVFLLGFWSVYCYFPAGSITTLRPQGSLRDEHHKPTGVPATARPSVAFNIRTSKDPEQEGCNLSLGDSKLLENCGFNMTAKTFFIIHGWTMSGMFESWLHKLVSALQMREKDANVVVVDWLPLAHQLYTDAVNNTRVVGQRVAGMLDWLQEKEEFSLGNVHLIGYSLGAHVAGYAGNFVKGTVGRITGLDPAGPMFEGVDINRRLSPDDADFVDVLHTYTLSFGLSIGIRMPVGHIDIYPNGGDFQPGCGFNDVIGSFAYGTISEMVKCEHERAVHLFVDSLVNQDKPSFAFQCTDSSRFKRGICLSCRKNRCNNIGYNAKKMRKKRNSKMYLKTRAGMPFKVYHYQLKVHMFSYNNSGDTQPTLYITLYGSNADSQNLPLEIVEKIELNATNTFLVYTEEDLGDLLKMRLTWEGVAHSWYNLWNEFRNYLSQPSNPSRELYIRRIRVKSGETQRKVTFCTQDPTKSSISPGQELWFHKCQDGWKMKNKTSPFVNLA
Test: Inhibition of mouse endothelial lipase expressed in HEK293F cells using D31-POPC-HDL as substrate incubated for 2 hrs in presence of mouse plasma by LC/MS analysis
assay_metric: IC50 (µM)
Numbers only here, please. The scale is µM.

Before answering, review these 2 worked examples.
O=C(CNC(=O)C(c1nc2ccc(-c3ccc(F)nc3)cc2s1)S(=O)(=O)CCC(F)(F)F)NC1CC1 (centres undefined) = 0.6
CS(=O)(=O)C(C(=O)NCCS(N)(=O)=O)c1nc2ccc(-c3cnn(CCN4CCOCC4)c3)cc2s1 (centres undefined) = 0.19

Let us examine a further case.
Which IC50 value is on record for CS(=O)(=O)C(C(=O)NCCS(N)(=O)=O)c1nc2ccc(-c3ccc(F)nc3)cc2s1 (centres undefined) ?
0.2

---

Test: Permeability of compound at pH 7.4 by PAMPA
Assay type: ADME
Conditions: read-out: permeability
Papp values by entry
Numbers only here, please. The scale is ×10⁻⁶ cm/s.

CS(=O)(=O)C(C(=O)NCC(=O)NC1CC1)c1nc2ccc(-c3ccc(F)nc3)cc2s1 (stereo not drawn) = 38.9
CS(=O)(=O)C(C(=O)NCCS(N)(=O)=O)c1nc2ccc(-c3ccc(C(=O)N4CCOCC4)cc3)cc2s1 (stereo not drawn) = 1.3

Let us examine a further case.
Which Papp value is on record for CS(=O)(=O)C(C(=O)NCCS(N)(=O)=O)c1nc2ccc(-c3ccccc3)cc2s1 (stereo not drawn) ?
36.8
